Measured values drawn from patent US6720324B2 for this set.

system: human GALR3 (Homo sapiens, UniProt O60755)
Construct: expressed in transfected cells
Sequence (O60755 whole entry): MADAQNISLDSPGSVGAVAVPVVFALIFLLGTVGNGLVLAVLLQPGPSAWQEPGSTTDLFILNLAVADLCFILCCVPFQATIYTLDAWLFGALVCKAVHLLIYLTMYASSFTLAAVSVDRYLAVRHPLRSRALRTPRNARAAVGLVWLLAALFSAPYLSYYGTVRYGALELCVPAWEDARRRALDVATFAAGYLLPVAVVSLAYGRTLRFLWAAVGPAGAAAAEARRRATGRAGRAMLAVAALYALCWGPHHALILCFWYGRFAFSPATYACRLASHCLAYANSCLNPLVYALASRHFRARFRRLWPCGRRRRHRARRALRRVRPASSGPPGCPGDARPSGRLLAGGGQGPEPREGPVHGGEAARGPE
assayOverview: Radioligand binding assay, cloned receptor
conditionNotes: Table 2; read-out: hGALR3 Ki
pKi: −log10 of the molar value.

substance | pKi
2-(3,4-DIFLUOROPHENYL)4,5-DIHYDROIMIDAZOLE-1-CARBOXYLIC ACID {3-[4-PHENYL-4-(4-BROMO-5-METHYLTHIOPNEN-2-YL)]PROPYL}-AMIDE [Example 19] | < 4.30

----------
Documented Kb across a set of compounds
system: human MCH1 receptor (Homo sapiens)
Sequence (Q99705 whole entry): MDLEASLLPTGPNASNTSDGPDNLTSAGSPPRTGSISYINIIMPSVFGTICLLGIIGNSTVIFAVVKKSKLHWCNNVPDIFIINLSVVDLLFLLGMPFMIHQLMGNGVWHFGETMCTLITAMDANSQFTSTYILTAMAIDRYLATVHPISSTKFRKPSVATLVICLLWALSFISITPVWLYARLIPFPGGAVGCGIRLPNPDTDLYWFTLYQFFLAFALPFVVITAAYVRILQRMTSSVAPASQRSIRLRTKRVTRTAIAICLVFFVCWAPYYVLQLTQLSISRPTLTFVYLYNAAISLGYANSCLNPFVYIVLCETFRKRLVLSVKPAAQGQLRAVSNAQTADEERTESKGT
assayOverview: Functional assay: intracellular calcium mobilization (antagonist potency Kb)
Assay type: cell-based
Parameters: expressed in transfected cells; host or cells: COS-7 cells, transient, DEAE-dextran, plasmid pEXJ.HR-TL231 (ATCC 203197)
metricName: Kb (nM)

compound | measuredResult
COCC1=C(C(=O)OC)C(c2ccc(F)c(F)c2)N(C(=O)NCCCN2CCC(OC(C)=O)(c3ccccc3)CC2)C(=O)N1 (stereo not shown) [Example 3] | 201
COC(=O)C1=C(C)NC(=O)N(C(=O)NCCCN2CCC3(CCc4ccccc43)CC2)C1c1ccc(F)c(F)c1 (stereo not shown) [Example 32] | 67
COC(=O)C1=C(C)NC(=O)N(C(=O)NCCCN2CCC3(CC2)OCc2ccccc23)C1c1ccc(F)c(F)c1 (stereo not shown) [Example 20] | 5
O=C(CCCN1CCC(O)(c2ccc(Cl)cc2)CC1)c1ccc(Cl)cc1 [Example 29] | 9

----------
Recorded melting point for the following compounds
Counter-ions that a name gives are not always drawn.
metricName: melting point

compound | metricName | measuredResult
COC(=O)C1=C(C)NC(=O)N(C(=O)NCCCN2CCC3(CC2)OCc2ccccc23)C1c1ccc2nonc2c1 (single isomer, unassigned) (as salt: hydrochloride) | melting point | 180 to 182 °C
O=C(CCCN1CCC(NC(=O)c2ccccc2)CC1)c1ccc(Cl)cc1 (as salt: HCl) | melting point | 243 to 244 °C
COC(=O)C1=C(C)NC(=O)N(C(=O)NCCCN2CCC3(CCc4ccccc43)CC2)C1c1ccc(F)c(F)c1 (stereo not drawn) | melting point | 150 to 153 °C
O=C(NC1CCN(CCC2CCc3ccccc3C2=O)CC1)c1ccccc1 (stereo not drawn) | melting point | 158 to 159 °C
COC(=O)C1=C(C)NC(=O)N(C(=O)NCCCN2CCN(c3ccccc3[N+](=O)[O-])C[C@@H]2C)C1c1ccc(F)c(F)c1 (single isomer, unassigned; (+)) (as salt: HCl) | melting point | 150 to 153 °C
COCC1=C(C(=O)OC)C(c2ccc(F)c(F)c2)N(C(=O)NCCCN2CCC(O)(c3ncccc3C)CC2)C(=O)N1 (single isomer, unassigned; (+)) | melting point | 132 to 135 °C

----------
system: human MCH1 receptor (Homo sapiens)
assayOverview: Functional assay: intracellular calcium mobilization (antagonist potency Kb)
Assay type: cell-based
Parameters: expressed in transfected cells; host or cells: COS-7 cells, transient, DEAE-dextran, plasmid pEXJ.HR-TL231 (ATCC 203197)
conditionNotes: Table 1; cloned human MCH1 receptor, functional assay; read-out: Kb (nM) hMCH1
Where Kb equals or exceeds 60 nM, the correct label is t; where it does not, the label is f.

compound | labelValue
O=C(NC1CCN(CCC2CCc3ccccc3C2=O)CC1)c1ccccc1 (stereo not drawn) [Example 5] | t
COCC1=C(C(=O)OC)C(c2ccc(F)c(F)c2)N(C(=O)NCCCN2CC=C(c3cccc(NC(C)=O)c3)CC2)C(=O)N1 (stereo not drawn) [Example 2] | f
COC(=O)C1=C(C)NC(=O)N(C(=O)NCCCN2CCN(c3ccccc3C)CC2)C1c1ccc(F)c(F)c1 (stereo not drawn) [Example 35] | t
COC(=O)C1=C(C)NC(=O)N(C(=O)NCCCN2CCC(c3ccccc3)CC2)C1c1ccc(F)c(F)c1 (stereo not drawn) [Example 11] | t
Fc1ccc(C(c2ccc(F)cc2)N2CCN(C/C=C/c3ccccc3)CC2)cc1 [Example 26] | t
COC(=O)C1=C(C)NC(=O)N(C(=O)NCCCN2CCC3(CCc4ccccc43)CC2)C1c1ccc2nonc2c1 (racemic) [Example 21] | f
COC(=O)C1=C(C)NC(=O)N(C(=O)NCCCN2CCC(c3ccccc3)CC2)C1c1ccc2nonc2c1 (stereo not drawn) [Example 8] | t
COC(=O)C1=C(C)NC(=O)N(C(=O)NCCCN2CCN(c3ccccc3[N+](=O)[O-])C[C@@H]2C)C1c1ccc(F)c(F)c1 (single isomer, unassigned; (+)) [Example 34] | t

----------
system: rat 5-HT2C receptor (Rattus norvegicus)
Construct: expressed in transfected cells
assayOverview: Radioligand binding assay, cloned receptor
conditionNotes: Table 2; read-out: r5HT2C Ki
pKi: −log10 of the molar value.

substance | pKi
2-(3,4-DIFLUOROPHENYL)4,5-DIHYDROIMIDAZOLE-1-CARBOXYLIC ACID {3-[4-PHENYL-4-(4-BROMO-5-METHYLTHIOPNEN-2-YL)]PROPYL}-AMIDE [Example 19] | 4.93

----------
system: human MCH1 receptor (Homo sapiens)
assayOverview: Functional assay: intracellular calcium mobilization (antagonist potency Kb)
Assay type: cell-based
Set-up: expressed in transfected cells; host or cells: COS-7 cells, transient, DEAE-dextran, plasmid pEXJ.HR-TL231 (ATCC 203197)
conditionNotes: Table 1; cloned human MCH1 receptor, functional assay; read-out: Kb (nM) hMCH1
Note to self: use Condition met only for Kb readings below 100 nM; a reading exactly at 100 nM still gets Condition not met.

compound | labelValue
COCC1=C(C(=O)OC)C(c2ccc(F)c(F)c2)N(C(=O)NCCCN2CCC(c3cccc(NC(C)=O)c3)CC2)C(=O)N1 (single isomer, unassigned; (+)) [Example 10] | Condition met
CN1CN(c2ccccc2)C2(CCN(CCCC(=O)c3ccc(F)cc3)CC2)C1=O [Example 30] | Condition not met
Cc1cc(O)cc(O)c1/C=N/c1ccc(-c2cn3ccccc3n2)cc1 [Example 27] | Condition not met
O=[N+]([O-])c1ccccc1S(=O)(=O)n1nnc2ccccc21 [Example 31] | Condition met
CCN1c2ccc(/C=C3\SC(=S)NC3=O)cc2C(C)=CC1(C)C [Example 25] | Condition not met
CCCCc1ccc(-c2cc(=O)[nH]c3[nH]c(=O)[nH]c(=O)c23)s1 [Example 37] | Condition not met
CCCCN(CCCC)c1ccc(CN2CCC(CNC(=O)N3C(=O)NC(C)=C(C(=O)OC)C3c3ccc4nonc4c3)CC2)cc1 (centres unmarked) [Example 6] | Condition met
CCCCN(CCCC)c1ccc(CNC[C@H]2CC[C@H](NC(=O)c3cccc4ccccc34)CC2)cc1 [Example 13] | Condition not met

----------
system: human GALR1 (Homo sapiens, UniProt P47211)
Construct: expressed in transfected cells
Sequence (P47211 whole entry): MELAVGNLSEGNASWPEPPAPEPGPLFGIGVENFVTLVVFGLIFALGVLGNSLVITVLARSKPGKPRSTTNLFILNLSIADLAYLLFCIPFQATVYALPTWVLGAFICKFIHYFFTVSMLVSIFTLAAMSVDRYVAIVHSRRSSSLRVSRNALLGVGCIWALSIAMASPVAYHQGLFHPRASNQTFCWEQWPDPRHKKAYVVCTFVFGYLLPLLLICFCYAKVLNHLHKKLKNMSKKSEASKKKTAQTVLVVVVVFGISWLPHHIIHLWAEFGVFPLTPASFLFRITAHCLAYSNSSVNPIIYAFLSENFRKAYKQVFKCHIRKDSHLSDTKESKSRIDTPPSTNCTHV
assayOverview: Radioligand binding assay, cloned receptor
conditionNotes: Table 3; read-out: hGALR1 Ki

substance | Ki
2-(3,4-DIFLUOROPHENYL)4,5-DIHYDROIMIDAZOLE-1-CARBOXYLIC ACID {3-[4-PHENYL-4-(4-BROMO-5-METHYLTHIOPNEN-2-YL)]PROPYL}-AMIDE [Example 19] | > 50 µM

----------
Known Ki of a selection of compounds
system: rat 5-HT2C receptor (Rattus norvegicus, UniProt P08909)
Construct: expressed in transfected cells
Sequence (P08909 33-460): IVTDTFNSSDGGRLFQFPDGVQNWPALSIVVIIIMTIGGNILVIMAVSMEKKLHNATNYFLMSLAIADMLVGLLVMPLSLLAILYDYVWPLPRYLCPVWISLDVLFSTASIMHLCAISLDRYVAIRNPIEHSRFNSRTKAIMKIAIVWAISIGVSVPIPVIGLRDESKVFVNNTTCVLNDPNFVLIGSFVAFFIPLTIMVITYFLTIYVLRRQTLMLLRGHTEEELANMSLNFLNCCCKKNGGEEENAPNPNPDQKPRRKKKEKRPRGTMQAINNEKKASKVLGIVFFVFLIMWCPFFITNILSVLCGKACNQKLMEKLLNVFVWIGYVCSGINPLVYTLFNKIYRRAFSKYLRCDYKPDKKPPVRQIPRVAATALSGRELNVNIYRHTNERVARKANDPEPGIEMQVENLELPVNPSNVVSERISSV
assayOverview: Radioligand binding assay, cloned receptor
conditionNotes: Table 2; read-out: r5HT2C Ki
Protocol: For binding assays, pellets of transfected cells are suspended in ice-cold buffer (20 mM Tris.HCl, 5 mM EDTA, pH 7.4) and homogenized by sonication for 7 sec. The cell lysates are centrifuged at 200×g for 5 min at 4° C. The supernatants are then centrifuged at 40,000×g for 20 min at 4° C. […] Protein concentrations are determined by the method of Bradford (1976) using bovine serum albumin as the standard. […]

compound | Ki
CCCCc1ccc(-c2cc(=O)[nH]c3[nH]c(=O)[nH]c(=O)c23)s1 | > 50 µM
COCC1=C(C(=O)OC)C(c2ccc(F)c(F)c2)N(C(=O)NCCCN2CCC(c3cccc(NC(C)=O)c3)CC2)C(=O)N1 (single isomer, unassigned; (+)) | 29.6 µM
